molecules and their reported z-score
test: viability profiling in RPMI8226 myeloma cells – cell-based, resazurin fluorescence, basal, 24 h, PK04 Diversity Set, profiling panel (AID 1180); conditions: higher = more signal;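 note: RPMI8826 multiple myeloma cell line at 5000 cells per well; test concentration not given here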
No unit in the answer, please; the number alone is enough.

CCCCCN1CC=CC23O[C@@H]4C=CCCOC(=O)C4[C@H]2C(=O)N(CCCCCCO)[C@@H]3C1=O (stereo partly specified) | 0.424
C=CCC(OC(C)=O)[C@@H]1[C@@H](N(Cc2cccc3ccccc23)C(=O)Cc2ccc(OC)cc2)c2cc(OCCCO)ccc2N1C(=O)c1ccc(-c2ccccc2)cc1 (stereo partly specified) | 0.0598

We now examine a further molecule.
Inquiry: I am curious: what z-score value has been reported for O=C1O[C@@H](c2ccccc2)[C@@H](c2ccccc2)N2[C@@H](c3ccc(OCCO)cc3)[C@]3(C(=O)Nc4ccc(C#CC5=CCCCC5)cc43)[C@@H](C(=O)NC[C@H](O)c3ccccc3)[C@H]12 ?
Reply text: -3.11

---

assay: compound effects on multiple myeloma cell viability – MM1S, calcein-AM fluorescence, 48 h, basal, profiling panel (AID 1165); conditions: higher = more signal; note: test concentration not given here
compounds and their reported z-score
No unit in the answer, please; the number alone is enough.

Inquiry: I am curious: what z-score value has been reported for [N-]=[N+]=Nc1ccccc1C[C@]1(C(=O)O)COC(c2ccc(OCCCO)cc2)=N1 ?
Reply text: -0.0932

Inquiry: How about this compound: CN1C2C=C(CCCO)C(C3C(=O)N(C(N)=O)C(=O)C32)C1C1CC1 (stereo not given)
Reply text: 0.0641

Inquiry: How about this compound: COc1cc2c(cc1O)C(c1cccs1)N(Cc1cc3c(cc1Br)OCO3)CC2 (stereo not given)
Reply text: -3.19

Inquiry: How about this compound: COc1ccc([Si](C)(C)[C@@H]2[C@@H](CCO)O[C@]3(C(=O)N(Cc4cccc(NC(=O)[C@H](C)O)c4)c4ccccc43)[C@H]2C)cc1
Reply text: -2.88

Inquiry: How about this compound: C=C[C@@H](CO)N(Cc1ccc(OC)cc1)S(=O)(=O)c1ccc(Br)cc1
Reply text: 1.39

Inquiry: How about this compound: COC(=O)C(CC#Cc1ccc2c(c1)[C@]1(C(=O)N2)[C@H](c2ccc(O)cc2)N2[C@H](c3ccccc3)[C@H](c3ccccc3)OC(=O)[C@H]2[C@@H]1C(=O)NC[C@H](O)c1ccccc1)C(=O)OC
Reply text: -1.58

Inquiry: How about this compound: C=CCNC(=O)[C@@H]1[C@H]2C(=O)O[C@H](c3ccccc3)[C@H](c3ccccc3)N2[C@H](c2ccccc2OCCO)[C@@]12C(=O)Nc1ccc(C#CCCO)cc12
Reply text: -0.66

Inquiry: How about this compound: CCOC(=O)C[C@H]1[C@H](OC(=O)c2ccccc2-c2ccccc2)[C@@H](NC(=O)c2ccc3ccccc3c2)c2cc(OCCCO)ccc2N1C(=O)c1ccccc1
Reply text: -0.306

Inquiry: How about this compound: O=C(C1N=C(c2ccc(OCCCO)cc2)N(c2ccccc2)O1)N1CCCCC1 (stereo not given)
Reply text: 0.301

Inquiry: How about this compound: Cc1ccc(C(C)CC(O)C2C=CC3C(=O)N(c4ccccc4)C(=O)C3N2Nc2ccccc2)o1 (stereo not given)
Reply text: -0.559

Inquiry: How about this compound: CCCCC(=C=CC[C@H](O)c1ccc(OCCO)cc1)CCO
Reply text: -2.4

Inquiry: How about this compound: COc1ccc(CCNC(=O)[C@@]2(Cc3ccccc3I)c3ccccc3C(=O)N(C3CCCCC3)[C@H]2c2ccc(CO)cc2)cc1
Reply text: -1.93

Inquiry: How about this compound: [N-]=[N+]=Nc1ccccc1[C@@H]1OC(c2ccc(OCCCO)cc2)=N[C@]1(Cc1ccccc1)C(=O)O
Reply text: -1.49

Inquiry: How about this compound: NC(=O)NCC#Cc1ccc2c(c1)[C@]1(C(=O)N2)[C@H](C(=O)N2CCN(c3ncccn3)CC2)[C@H]2C(=O)O[C@H](c3ccccc3)[C@H](c3ccccc3)N2[C@@H]1c1ccc(O)cc1
Reply text: -0.977

Inquiry: How about this compound: O=C1C2C=CC(C(O)c3ccco3)N(Nc3ccccc3F)C2C(=O)N1c1ccccc1 (stereo not given)
Reply text: -0.142

---

experiment: viability profiling in MM1S myeloma cells – cell-based, resazurin fluorescence, basal, 24 h, PK04 Diversity Set, profiling panel (AID 1174); conditions: higher = more signal, called active from +8 up or from −8 down; note: test concentration not given here
compounds and their reported z-score
No unit in the answer, please; the number alone is enough.

Below, each entry is followed by its recorded z-score result.
C[C@@H]1NC(=O)[C@@H](Cc2ccccc2)NC(=O)[C@@]23C(=O)N[C@@H](Cc4ccccc4)C2[C@H](C)[C@@]2(C)O[C@H]2C3/C=C/C/C=C\CNC1=O (stereo partly drawn) | 0.0992
COc1cc(NN2C(C(O)c3cc(OC)c(OC)c(OC)c3)C=CC3C(=O)N(C)C(=O)C32)cc(OC)c1OC (stereo not drawn) | -0.464
CCCC[C@@H](O)C1=C(COC)C[C@H]2C(=O)N(Cc3ccccc3)C(=O)[C@H]2[C@H]1CO | -1.61
CC[C@@H]1C=C(C(=O)O)[C@H](c2ccc(C#N)cc2)N1S(=O)(=O)c1ccc(C)cc1 | -0.933
[N-]=[N+]=Nc1ccccc1[C@@H]1OC(c2ccc(OCCCO)cc2)=N[C@]1(Cc1ccccc1)C(=O)N1CCCCC1 | -3.26

Inquiry: I am curious: what z-score value has been reported for N[C@@H](Cc1ccccc1)C(=O)NCc1cn(Cc2ccccc2)nn1 ?
Reply text: 0.323

Inquiry: How about this compound: Cc1ccc(NN2C(C(O)c3c(F)cccc3Cl)C=CC3C(=O)N(C4CCCCC4)C(=O)C32)cc1 (stereo not drawn)
Reply text: 0.0812

Inquiry: How about this compound: O=C1OCCC=C[C@H]2OC34C=CCN(c5ccc6ccccc6c5)C(=O)[C@H]3N(CCCO)C(=O)[C@@H]4C12 (stereo partly drawn)
Reply text: -0.284

---

assay: ATP-based viability of Huh7 replicon cells – cell-based, CellTiter-Glo luminescence, basal, 48 h, cytotoxicity control for HCV replication inhibitor project, primary screen (AID 1143); conditions: higher = more signal, called active from +8 up or from −8 down;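 note: Huh7 hepatoma cells carrying a hepatitis C replication reporter with no stimulus; test concentration not given here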
molecules and their reported z-score
No unit in the answer, please; the number alone is enough.

COc1ccc(CCNC(=O)[C@@H]2c3ccccc3C(=O)N(C3CCCCC3)[C@H]2c2ccc(CO)cc2)cc1 | -2.93
O=C(c1ccccc1)N1C(=O)[C@]2(Cc3ccccc31)N=C(c1ccc(OCCCO)cc1)O[C@@H]2c1ccccc1 | -5.16
CCCCNC(=O)c1ccc(C#CC(C)(C)C)c(OC(C)=O)c1 | -1.7

Inquiry: I am curious: what z-score value has been reported for CC1CC/C=C\[C@H]2OC34C=CCN(Cc5ccccc5)C(=O)[C@H]3N(C(CO)C(C)C)C(=O)[C@@H]4C2C(=O)O1 (stereo partly specified) ?
Reply text: -0.0399

Inquiry: How about this molecule: CC(C)[Si](C#C[Si](C(C)C)(C(C)C)C(C)C)(O[C@H](c1ccccc1)c1cn(Cc2ccccc2)nn1)C(C)C
Reply text: -0.071

---

target: Torsin-1A-interacting protein 1 (Homo sapiens) (UniProt Q5JTV8); test: compound microarray binding of lysate hLAP1 – cell lysate, small-molecule microarray, COS7 lysate, 635/667 nm fluorescence, primary screen (AID 1116); conditions: 635 nm fluorescence, higher = more signal
Sequence (Q5JTV8 whole entry, looked up): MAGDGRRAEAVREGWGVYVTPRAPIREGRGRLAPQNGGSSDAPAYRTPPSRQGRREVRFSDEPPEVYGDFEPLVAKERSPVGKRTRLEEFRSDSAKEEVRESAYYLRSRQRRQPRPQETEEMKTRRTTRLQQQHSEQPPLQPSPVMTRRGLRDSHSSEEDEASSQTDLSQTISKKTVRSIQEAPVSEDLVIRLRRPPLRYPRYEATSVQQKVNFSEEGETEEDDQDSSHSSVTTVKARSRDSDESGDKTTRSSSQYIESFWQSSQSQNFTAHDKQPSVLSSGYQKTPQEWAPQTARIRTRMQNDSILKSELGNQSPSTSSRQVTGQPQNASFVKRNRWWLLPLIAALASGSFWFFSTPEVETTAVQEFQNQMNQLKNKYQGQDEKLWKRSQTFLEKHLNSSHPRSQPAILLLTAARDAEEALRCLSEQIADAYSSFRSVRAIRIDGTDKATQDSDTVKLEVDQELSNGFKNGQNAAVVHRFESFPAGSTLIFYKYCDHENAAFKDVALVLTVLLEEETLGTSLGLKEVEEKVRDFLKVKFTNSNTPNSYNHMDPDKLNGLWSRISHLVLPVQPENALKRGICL
observable: composite z-score
No unit in the answer, please; the number alone is enough.

NC(=O)NCC#Cc1ccc2c(c1)[C@]1(C(=O)N2)[C@H](C(=O)N2CCN(c3ncccn3)CC2)[C@H]2C(=O)O[C@H](c3ccccc3)[C@H](c3ccccc3)N2[C@@H]1c1ccc(O)cc1 | 0.498
COCCOC(=O)N1C(=O)[C@@]2(c3cc(C#CC4(O)CCCCCC4)ccc31)[C@H](c1ccc(O)cc1)N1[C@H](c3ccccc3)[C@H](c3ccccc3)OC(=O)[C@H]1[C@@H]2C(=O)N1CCN(c2ncccn2)CC1 | 1.21
CC(=O)N1CC2(CC2)CC1c1ccccc1 (centres undefined) | 0.791

We now examine a further compound.
Inquiry: I am curious: what composite z-score value has been reported for CCOc1cc(C(O)C2C=CC3C(=O)NC(=O)C3N2Nc2ccc(Cl)cc2Cl)ccc1O (centres undefined) ?
Reply text: 0.0975

---

target: Carbonic anhydrase 2 (Homo sapiens) (UniProt P00918); test: compounds binding carbonic anhydrase 2 – biochemical, small-molecule microarray, Alexa647-labelled CAII, profiling panel (AID 1122); settings: CAII-A647 binding fluorescence, higher = more signal
Reported composite z-score maps to class as: range 1: < 0.4; range 2: ≥ 0.4 and < 0.7; range 3: ≥ 0.7

Here's what some known entries look like.
O=C1C2C=CC(C(O)c3cccc(O)c3)N(Nc3ccc([N+](=O)[O-])cc3)C2C(=O)N1c1ccccc1 (stereo unspecified) | range 3
CCCC=C(CCC)[C@@H](NP(=O)(c1ccccc1)c1ccccc1)c1ccc(-c2ccccc2)cc1 | range 2
COc1ccc([Si](C)(C)[C@H]2[C@H](CC(=O)N3Cc4ccccc4C[C@H]3CO)O[C@@]3(C(=O)N(Cc4ccc(N5CCOC5=O)cc4)c4ccccc43)[C@@H]2C)cc1 | range 2

Inquiry: # classify by composite z-score band: N#Cc1ccc(NN2C(C(O)c3ccc(Br)cc3)C=CC3C(=O)N(c4ccccc4)C(=O)C32)cc1 (stereo unspecified)
Reply text: range 3

Inquiry: How about this compound: COc1ccc(C#Cc2ccc3c(c2)[C@]2(C(=O)N3)[C@H](C(=O)O)[C@H]3C(=O)O[C@H](c4ccccc4)[C@H](c4ccccc4)N3[C@@H]2c2ccc(O)cc2)cc1
Reply text: range 2
